- measurement description: in vitro
- condition label: human, NCM460 cells
- Description: Cytotoxicity against human NCM460 cells assessed as inhibition of cell proliferation incubated for 72 hrs
recorded metric: IC50 at 72 h

INSERT INTO measurements (molecular_string, assay_value) VALUES
  ('O=C(c1cc(Cc2n[nH]c(=O)c3ccccc23)ccc1F)N1CCN(C(=O)C2CC2)CC1', '> 200 µM');
